- Tested on: COV318 cells
- protocol.text: Inhibition of cell proliferation, CyQUANT Direct, COV318
- Type: cell-based
- assay.context: Homo sapiens; COV318 ovarian cancer cells, 72-hour; read-out: COV 318 proliferation calculated IC50
reported.endpoint: IC50

{"columns": ["molecule", "experimental.value"],
 "data": [
  ["N#Cc1ccc2c(-c3nc(N[C@H]4CNC[C@@H]4c4ccc(Cl)cc4)ncc3C(F)(F)F)c[nH]c2c1 (relative stereo)", "> 2000 nM"],
  ["C[C@@H]1C[C@H](Nc2ncc(C(F)(F)F)c(-c3c[nH]c4cc(C#N)ccc34)n2)CN1", "> 2000 nM"],
  ["CCO[C@@H]1CNC[C@H]1Nc1ncc(C(F)(F)F)c(-c2c[nH]c3cc(C#N)ccc23)n1 (relative stereo)", "> 2000 nM"],
  ["N#Cc1ccc2c(-c3nc(N[C@H]4CCC[C@@H]4N4CCOCC4)ncc3C(F)(F)F)c[nH]c2c1", "> 2000 nM"],
  ["Cc1noc(C)c1-c1ccc2c(-c3nc(N[C@H]4C[C@H]5CC[C@@H]4N5)ncc3C(F)(F)F)c[nH]c2n1", "500 to 2000 nM"],
  ["CN(C)[C@H]1CCC[C@@H]1Nc1ncc(C(F)(F)F)c(-c2c[nH]c3cc(C#N)ccc23)n1", "> 2000 nM"],
  ["COC1CN([C@@H]2CCC[C@@H]2Nc2ncc(C(F)(F)F)c(-c3c[nH]c4nc(-c5c(C)noc5C)ccc34)n2)C1", "> 2000 nM"],
  ["Cc1noc(C)c1-c1ccc2c(-c3nc(N[C@H]4CCC[C@@H]4N4CC(O)C4)ncc3C(F)(F)F)c[nH]c2n1", "> 2000 nM"],
  ["N[C@H]1CCC[C@@H]1Nc1ncc(C(F)(F)F)c(-c2c[nH]c3c(Cl)c(O)ccc23)n1", "100 to 500 nM"],
  ["Cc1noc(C)c1-c1ccc2c(-c3nc(N[C@H]4CCC[C@@H]4N4CC[C@@H](F)C4)ncc3C(F)(F)F)c[nH]c2n1", "> 2000 nM"],
  ["CCN[C@H]1CCC[C@@H]1Nc1ncc(C(F)(F)F)c(-c2c[nH]c3cc(C#N)ccc23)n1", "100 to 500 nM"],
  ["COCCN[C@H]1CCC[C@@H]1Nc1ncc(C(F)(F)F)c(-c2c[nH]c3cc(C#N)ccc23)n1", "100 to 500 nM"],
  ["N#Cc1ccc2c(-c3nc(N[C@@H]4CC[C@H]4N4CCOCC4)ncc3C(F)(F)F)c[nH]c2c1", "> 2000 nM"],
  ["CC(=O)N[C@H]1CCC[C@@H]1Nc1ncc(C(F)(F)F)c(-c2c[nH]c3cc(C#N)ccc23)n1", "> 2000 nM"],
  ["C[C@H]1C[C@H](Nc2ncc(C(F)(F)F)c(-c3c[nH]c4cc(C#N)ccc34)n2)CN1", "> 2000 nM"],
  ["Cc1noc(C)c1-c1ccc2c(-c3nc(NC4CCCC4N)ncc3C(F)(F)F)c[nH]c2n1 (stereo not shown)", "100 to 500 nM"],
  ["Cc1noc(C)c1-c1ccc2c(-c3nc(N[C@@H]4C[C@H]5CC[N@](CC5)C4)ncc3C(F)(F)F)cn(S(=O)(=O)c3ccccc3)c2n1", "100 to 500 nM"],
  ["CCN[C@H]1CC[C@@H]1Nc1ncc(C(F)(F)F)c(-c2c[nH]c3nc(-c4c(C)noc4C)ccc23)n1", "< 100 nM"],
  ["N#Cc1ccc2c(-c3nc(N[C@H]4CC[C@@H]4N4CCOCC4)ncc3C(F)(F)F)c[nH]c2c1", "> 2000 nM"],
  ["COC1CN([C@H]2CCC[C@@H]2Nc2ncc(C(F)(F)F)c(-c3c[nH]c4nc(-c5c(C)noc5C)ccc34)n2)C1", "> 2000 nM"],
  ["Cc1noc(C)c1-c1ccc2c(-c3nc(N[C@H]4CC[C@@H]4N)ncc3C(F)(F)F)c[nH]c2n1", "100 to 500 nM"],
  ["CCN[C@H]1CCC[C@@H]1Nc1ncc(C(F)(F)F)c(-c2c[nH]c3nc(-c4c(C)noc4C)ccc23)n1", "< 100 nM"],
  ["N#Cc1ccc2c(-c3nc(N[C@H]4CC[C@@H]4N)ncc3C(F)(F)F)c[nH]c2c1", "100 to 500 nM"],
  ["Cc1noc(C)c1-c1ccc2c(-c3nc(N[C@H]4CCCC4N4CCCC4)ncc3C(F)(F)F)c[nH]c2n1 (stereo partly shown)", "< 100 nM"],
  ["Cc1noc(C)c1-c1ccc2c(-c3nc(N[C@H]4CCC[C@@H]4N4CC[C@H](F)C4)ncc3C(F)(F)F)c[nH]c2n1", "> 2000 nM"],
  ["N#Cc1ccc2c(-c3nc(N[C@H]4C[C@H]5CC[C@@H]4N5)ncc3C(F)(F)F)c[nH]c2c1", "100 to 500 nM"],
  ["N#Cc1ccc2c(-c3nc(N[C@@H]4C[C@@H]5CCC4N5)ncc3C(F)(F)F)c[nH]c2c1 (racemic)", "100 to 500 nM"],
  ["N#Cc1ccc2c(-c3nc(NC[C@@H]4COCCN4)ncc3C(F)(F)F)c[nH]c2c1", "> 2000 nM"]
]}

----------
- assay.target: CDK7/Cyclin H/MAT1 complex (Homo sapiens, UniProt P50613)
- Sequence (P50613 whole entry): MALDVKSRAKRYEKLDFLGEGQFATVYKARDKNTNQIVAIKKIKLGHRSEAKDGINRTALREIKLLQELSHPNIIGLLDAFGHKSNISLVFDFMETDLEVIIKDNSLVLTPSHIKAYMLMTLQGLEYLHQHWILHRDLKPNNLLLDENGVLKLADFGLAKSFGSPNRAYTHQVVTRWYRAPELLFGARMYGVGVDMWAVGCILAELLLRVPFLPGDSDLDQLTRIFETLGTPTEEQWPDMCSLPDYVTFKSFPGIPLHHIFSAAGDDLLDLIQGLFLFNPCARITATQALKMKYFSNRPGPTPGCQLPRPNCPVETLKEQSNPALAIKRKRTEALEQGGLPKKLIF
- Sequence (P51946 whole entry partner): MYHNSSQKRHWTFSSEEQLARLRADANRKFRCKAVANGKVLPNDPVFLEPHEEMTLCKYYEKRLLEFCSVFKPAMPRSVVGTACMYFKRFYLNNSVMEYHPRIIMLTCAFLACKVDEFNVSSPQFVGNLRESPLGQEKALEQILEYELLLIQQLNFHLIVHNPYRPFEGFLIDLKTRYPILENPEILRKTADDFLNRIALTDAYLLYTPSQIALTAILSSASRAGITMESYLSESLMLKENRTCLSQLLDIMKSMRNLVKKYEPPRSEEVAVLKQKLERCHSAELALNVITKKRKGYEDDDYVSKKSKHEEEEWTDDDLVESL
- Sequence (P51948 whole entry partner): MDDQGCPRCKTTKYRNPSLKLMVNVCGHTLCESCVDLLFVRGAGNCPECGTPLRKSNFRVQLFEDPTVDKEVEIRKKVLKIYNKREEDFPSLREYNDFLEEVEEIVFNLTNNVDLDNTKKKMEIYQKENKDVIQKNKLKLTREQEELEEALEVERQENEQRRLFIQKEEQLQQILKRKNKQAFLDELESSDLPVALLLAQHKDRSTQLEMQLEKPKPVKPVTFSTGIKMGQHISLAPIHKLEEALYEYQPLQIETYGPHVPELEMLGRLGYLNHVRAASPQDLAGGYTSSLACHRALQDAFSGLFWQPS
- protocol.text: CDK7 kinase inhibition assay (Caliper/LabChip EZ Reader)
pIC50: −log10 of the molar value.
reported.endpoint: pIC50

{"columns": ["compound", "experimental.value"],
 "data": [
  ["N#Cc1ccc2c(-c3nc(N[C@H]4CN[C@H](CO)C4)ncc3C(F)(F)F)c[nH]c2c1 [Compound 112]", "6.30 to 7.00"],
  ["N#Cc1ccc2c(-c3nc(N[C@H]4CC[C@@H]4N4CCCC4)ncc3C(F)(F)F)c[nH]c2c1 [Compound 135]", "> 7.52"],
  ["Cc1noc(C)c1-c1ccc2c(-c3nc(N[C@H]4CC[C@@H]4N)ncc3C(F)(F)F)c[nH]c2n1 [Compound 129]", "> 7.52"],
  ["N#Cc1ccc2c(-c3nc(N[C@H]4CCC[C@@H]4N4CCOCC4)ncc3C(F)(F)F)c[nH]c2c1 [Compound 121]", "7.00 to 7.52"],
  ["Cc1noc(C)c1-c1ccc2c(-c3nc(N[C@H]4CCC[C@@H]4N4CC(F)C4)ncc3C(F)(F)F)c[nH]c2n1 [Compound 155]", "6.30 to 7.00"],
  ["N#Cc1ccc2c(-c3nc(N[C@H]4CNC[C@@H]4c4ccc(Cl)cc4)ncc3C(F)(F)F)c[nH]c2c1 (relative stereo) [Compound 113]", "< 6.30"],
  ["Cc1noc(C)c1-c1ccc2c(-c3nc(N[C@H]4CCCC4N4CCCC4)ncc3C(F)(F)F)c[nH]c2n1 (stereo partly shown) [Compound 144]", "> 7.52"]
]}

----------
- assay.target: CDK9/Cyclin T1 complex (Homo sapiens, UniProt P50750)
- Sequence (P50750 whole entry): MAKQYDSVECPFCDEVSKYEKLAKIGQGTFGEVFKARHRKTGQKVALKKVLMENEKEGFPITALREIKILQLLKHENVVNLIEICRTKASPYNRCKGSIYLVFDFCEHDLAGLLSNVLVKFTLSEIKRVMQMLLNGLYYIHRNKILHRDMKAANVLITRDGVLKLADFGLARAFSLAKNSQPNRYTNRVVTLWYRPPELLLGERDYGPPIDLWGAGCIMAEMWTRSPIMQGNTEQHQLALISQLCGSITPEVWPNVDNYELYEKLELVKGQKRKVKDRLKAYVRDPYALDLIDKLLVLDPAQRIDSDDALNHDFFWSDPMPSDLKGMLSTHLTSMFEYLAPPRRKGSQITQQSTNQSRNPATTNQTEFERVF
- Sequence (O60563 whole entry partner): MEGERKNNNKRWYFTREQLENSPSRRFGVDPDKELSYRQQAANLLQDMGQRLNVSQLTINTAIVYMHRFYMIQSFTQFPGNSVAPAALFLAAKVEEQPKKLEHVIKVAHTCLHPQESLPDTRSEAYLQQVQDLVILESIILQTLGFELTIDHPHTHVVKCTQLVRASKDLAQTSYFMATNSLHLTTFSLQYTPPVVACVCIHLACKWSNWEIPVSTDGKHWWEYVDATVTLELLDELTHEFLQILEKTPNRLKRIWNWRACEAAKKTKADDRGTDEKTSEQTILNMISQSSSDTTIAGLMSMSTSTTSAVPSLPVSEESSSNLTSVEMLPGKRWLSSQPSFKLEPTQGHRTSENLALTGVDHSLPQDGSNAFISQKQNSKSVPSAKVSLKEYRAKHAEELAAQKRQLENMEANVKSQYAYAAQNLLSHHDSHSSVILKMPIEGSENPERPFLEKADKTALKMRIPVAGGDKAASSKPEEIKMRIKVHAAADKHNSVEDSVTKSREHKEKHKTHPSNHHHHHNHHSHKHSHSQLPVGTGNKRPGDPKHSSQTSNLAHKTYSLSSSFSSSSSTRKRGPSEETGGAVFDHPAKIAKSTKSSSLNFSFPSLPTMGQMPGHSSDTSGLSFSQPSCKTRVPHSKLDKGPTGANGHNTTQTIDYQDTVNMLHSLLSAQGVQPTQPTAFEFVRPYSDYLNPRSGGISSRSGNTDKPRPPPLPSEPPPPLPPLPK
- protocol.text: CDK9 kinase inhibition assay (Caliper/LabChip EZ Reader)
- assay.context: read-out: CDK 9 calculated IC50; ATP 2 mM, 27° C., 15 min incubation, 10 mM MgCl2
pIC50: −log10 of the molar value.
reported.endpoint: pIC50

{"columns": ["query.smiles", "experimental.value"],
 "data": [
  ["Cc1noc(C)c1-c1ccc2c(-c3nc(N[C@@H]4C[C@H]5CC[C@@H]4N5)ncc3C(F)(F)F)c[nH]c2c1", "< 6.30"]
]}

----------
- assay.target: CDK7/Cyclin H/MAT1 complex (Homo sapiens, UniProt P50613)
- protocol.text: CDK7 kinase inhibition assay (Caliper/LabChip EZ Reader)
- assay.context: read-out: CDK 7 calculated IC50; ATP 2 mM, 27° C., 35 min incubation, 6 mM MgCl2

{"columns": ["compound", "IC50"],
 "data": [
  ["Cc1noc(C)c1-c1ccc2c(-c3nc(N[C@@H]4C[C@H]5CC[C@@H]4N5)ncc3C(F)(F)F)c[nH]c2c1 [Compound 138]", "30 to 100 nM"]
]}

----------
- Tested on: COV318 cells
- protocol.text: Inhibition of cell proliferation, CyQUANT Direct, COV318
- Assay type: cell-based
- assay.context: Homo sapiens; COV318 ovarian cancer cells, 72-hour; read-out: COV 318 proliferation calculated IC50
pIC50: −log10 of the molar value.
Quick reference: pIC50 of the listed items.
reported.endpoint: pIC50

{"columns": ["molecule", "experimental.value"],
 "data": [
  ["Cc1noc(C)c1-c1ccc2c(-c3nc(N[C@H]4CCC[C@H]4N4CC(F)(F)C4)ncc3C(F)(F)F)c[nH]c2n1", "< 5.70"],
  ["COCCN[C@H]1CC[C@@H]1Nc1ncc(C(F)(F)F)c(-c2c[nH]c3cc(C#N)ccc23)n1", "5.70 to 6.30"],
  ["N#Cc1ccc2c(-c3nc(N[C@@H]4CNC[C@H]4F)ncc3C(F)(F)F)c[nH]c2c1 (relative stereo)", "< 5.70"],
  ["N#Cc1ccc2c(-c3nc(N[C@@H]4CNC[C@@H]4O)ncc3C(F)(F)F)c[nH]c2c1 (relative stereo)", "< 5.70"],
  ["Cc1noc(C)c1-c1ccc2c(-c3nc(N[C@H]4CCC[C@@H]4NCCF)ncc3C(F)(F)F)c[nH]c2n1", "< 5.70"],
  ["Cc1noc(C)c1-c1ccc2c(-c3nc(N[C@H]4CCC[C@@H]4NCCO)ncc3C(F)(F)F)c[nH]c2n1", "6.30 to 7.00"],
  ["Cc1noc(C)c1-c1ccc2c(-c3nc(N[C@H]4CCC[C@@H]4NCC(F)F)ncc3C(F)(F)F)c[nH]c2n1", "< 5.70"],
  ["CN1CC[C@H](Nc2ncc(C(F)(F)F)c(-c3c[nH]c4cc(C#N)ccc34)n2)C1", "5.70 to 6.30"],
  ["N#Cc1ccc2c(-c3nc(N[C@H]4CCC[C@@H]4N)ncc3C(F)(F)F)c[nH]c2c1", "6.30 to 7.00"],
  ["Cc1noc(C)c1-c1ccc2c(-c3nc(N[C@H]4CCC[C@@H]4N4CC(F)(F)C4)ncc3C(F)(F)F)c[nH]c2n1", "< 5.70"],
  ["N#Cc1ccc2c(-c3nc(N[C@H]4CCC[C@@H]4N4CCCC4)ncc3C(F)(F)F)c[nH]c2c1", "6.30 to 7.00"],
  ["N#Cc1ccc2c(-c3nc(N[C@H]4CC[C@@H]4N4CCCC4)ncc3C(F)(F)F)c[nH]c2c1", "< 5.70"],
  ["Cc1nsc(-c2ccc3c(-c4nc(N[C@H]5CCC[C@@H]5N)ncc4C(F)(F)F)c[nH]c3n2)n1", "< 5.70"],
  ["Cc1noc(C)c1-c1ccc2c(-c3nc(N[C@H]4C[C@H]5CC[N@](CC5)C4)ncc3C(F)(F)F)c[nH]c2n1", "> 7.00"],
  ["N#Cc1ccc2c(-c3nc(N[C@H]4CN[C@H](CO)C4)ncc3C(F)(F)F)c[nH]c2c1", "< 5.70"],
  ["Cc1noc(C)c1-c1ccc2c(-c3nc(N[C@@H]4C[C@@H]5CC[C@H]4N5)ncc3C(F)(F)F)c[nH]c2c1", "6.30 to 7.00"],
  ["N[C@H]1CCC[C@@H]1Nc1ncc(C(F)(F)F)c(-c2c[nH]c3cc(-c4nccs4)ccc23)n1", "< 5.70"],
  ["CC(C)N1CC[C@H](Nc2ncc(C(F)(F)F)c(-c3c[nH]c4cc(C#N)ccc34)n2)C1", "< 5.70"],
  ["CCN[C@H]1CC[C@@H]1Nc1ncc(C(F)(F)F)c(-c2c[nH]c3cc(C#N)ccc23)n1", "5.70 to 6.30"],
  ["CC(=O)N[C@H]1CC[C@@H]1Nc1ncc(C(F)(F)F)c(-c2c[nH]c3cc(C#N)ccc23)n1", "< 5.70"],
  ["Cc1noc(C)c1-c1ccc2c(-c3nc(N[C@H]4CCC[C@@H]4N4CCC4)ncc3C(F)(F)F)c[nH]c2n1", "< 5.70"],
  ["Cc1noc(C)c1-c1ccc2c(-c3nc(N[C@H]4CCC[C@@H]4N)ncc3C(F)(F)F)c[nH]c2c1", "> 7.00"],
  ["COC1CCN([C@H]2CCC[C@@H]2Nc2ncc(C(F)(F)F)c(-c3c[nH]c4nc(-c5c(C)noc5C)ccc34)n2)C1 (some centres unmarked)", "< 5.70"]
]}
